Each recorded value in this set is attributed to PubChem BioAssay (NCI).

- System: TK-10 renal
- Experiment summary: NCI tumour cell line growth inhibition, 48 h
Quantity measured: TGI

-- ask Specify reported TGI for the compound shown: N#CC1(c2nc3ccccc3o2)C(=O)C(=O)N(c2ccc(Cl)c(Cl)c2)C(=O)C1=O
-- reply > 100 µM

-- ask Specify reported TGI for the compound shown: Cn1c(=O)c2[nH]c(COCc3nc4c([nH]3)c(=O)n(C)c(=O)n4C)nc2n(C)c1=O
-- reply > 100 µM

-- ask Specify reported TGI for the compound shown: c1cncc(CNc2ccccc2-c2nnc(Nc3ccc4c(c3)OCCO4)o2)c1
-- reply > 100 µM

-- ask Specify reported TGI for the compound shown: C/C=C/OC1C(C2COC(C)(C)O2)OC2OC(C)(C)OC21 (stereo unspecified)
-- reply > 100 µM

-- ask Specify reported TGI for the compound shown: COC(=O)c1cc(C)ccc1CC(Cc1ccccc1C)C(=O)OC (stereo unspecified)
-- reply > 100 µM

-- ask Specify reported TGI for the compound shown: O=C(Nc1cc(Cl)ccc1O)c1cccc(NC2=C(Cl)C(=O)N(Cc3ccccc3)C2=O)c1
-- reply 95.5 µM

-- ask Specify reported TGI for the compound shown: Cc1cc2c(c(C#N)c1C)NC(=O)C(CC(=O)O)C2=O (stereo unspecified)
-- reply > 100 µM

-- ask Specify reported TGI for the compound shown: O=C1C(Cl)=C(N2CCOCC2)C(=O)c2ccccc21
-- reply 30.4 µM

-- ask Specify reported TGI for the compound shown: c1ccc2c(Cc3c[nH]c4ccccc34)c[nH]c2c1
-- reply 35.2 µM

-- ask Specify reported TGI for the compound shown: Cc1ccc2c(=O)[nH]sc2c1
-- reply 33.9 µM

-- ask Specify reported TGI for the compound shown: Cn1c2ccc([N+](=O)[O-])cc2c(=O)c2c(O)cc(O)cc21
-- reply > 100 µM

-- ask Specify reported TGI for the compound shown: COc1ccc2nc(NC(=O)C(=O)CC(=O)c3ccc(Cl)cc3)sc2c1
-- reply > 100 µM

-- ask Specify reported TGI for the compound shown: COc1cc2c(cc1OC)[C@@H](C(O)c1ccccc1)NCC2 (stereo partly specified)
-- reply > 100 µM

-- ask Specify reported TGI for the compound shown: Cc1ccc(S(=O)(=O)OCC23CCC(C4CC42)C2CC23)cc1 (stereo unspecified)
-- reply > 100 µM

-- ask Specify reported TGI for the compound shown: CC(=O)NC1CCC(NC(=O)OC(C)(C)C)C(NC(=O)OC(C)(C)C)C1 (stereo unspecified)
-- reply > 100 µM

-- ask Specify reported TGI for the compound shown: Nc1ncc(-c2ccc(C(F)(F)F)cc2)c(NC2CCCCCC2)n1
-- reply > 100 µM
